Sourced from the supplement of paper PMC12338614

B1: library; numbered along this chain (parent)
chain: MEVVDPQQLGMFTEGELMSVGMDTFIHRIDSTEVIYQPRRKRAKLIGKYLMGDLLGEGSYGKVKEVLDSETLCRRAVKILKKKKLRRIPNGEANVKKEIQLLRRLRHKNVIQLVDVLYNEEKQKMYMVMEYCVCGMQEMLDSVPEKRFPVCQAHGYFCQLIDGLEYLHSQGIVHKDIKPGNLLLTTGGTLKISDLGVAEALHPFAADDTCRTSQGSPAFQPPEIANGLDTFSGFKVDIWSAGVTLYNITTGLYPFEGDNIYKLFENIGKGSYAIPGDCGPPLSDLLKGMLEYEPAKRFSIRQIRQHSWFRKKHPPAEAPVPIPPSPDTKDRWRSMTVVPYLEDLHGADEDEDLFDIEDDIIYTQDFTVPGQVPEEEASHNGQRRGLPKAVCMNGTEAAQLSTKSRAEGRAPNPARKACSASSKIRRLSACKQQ

- Variants of: B1
- protocol_details: STK11 functional score (HeLa growth suppression), rescaled enrichment; synonymous median = 1, nonsense median = 0 (normalised score)
- condition_summary: with HeLa; variant type: missense
measurement_kind: STK11 functional score
Would you mind answering with just the numeric figure?

Below, each entry is followed by its recorded STK11 functional score result.
{"columns": ["mutant_code", "STK11 functional score"],
 "data": [
  ["V143F", 1.01],
  ["D277M", 0.115]
]}

Query: Looking for the measured STK11 functional score of `L55P` , can you help?
Response: 1.23

Query: Looking for the measured STK11 functional score of `R104D` , can you help?
Response: 0.685

Query: Looking for the measured STK11 functional score of `H107Y` , can you help?
Response: 0.262

Query: Looking for the measured STK11 functional score of `L17A` , can you help?
Response: 1.68

Query: Looking for the measured STK11 functional score of `L105I` , can you help?
Response: 1.57

Query: Looking for the measured STK11 functional score of `A397M` , can you help?
Response: 1.62
